test: physchem; details: 50 mM phosphate buffer, 25 °C, pH 7.4, aqueous buffer, thermodynamic from solid
Parameter: solubility at 16 h

Cc1ccc([C@@H]2CCON2C(=O)C2CCN(c3ccnc(N4CCC(C)(C)C4=O)n3)CC2)cn1 [Example 84] | > 1080 µM
Cc1ccc([C@@H]2CCON2C(=O)[C@H]2CCN(c3cc(-n4ccnc4C)ncn3)CC23CC3)cn1 (single isomer, unassigned) [Example 79] | > 1090 µM
Cc1ncc([C@@H]2CCON2C(=O)[C@@H]2CCN(c3cc(-c4ncnn4C)ncn3)CC23CC3)cc1F [Example 43] | > 1040 µM
O=C(C1CCN(c2ncc(F)c(-c3ncco3)n2)CC1)N1OCC[C@H]1c1cnccn1 [Example 12] | > 1180 µM
Cc1ccc([C@@H]2CCON2C(=O)C2CCN(c3nccc(N4CCCC4=O)n3)CC2)cn1 [Example 81] | > 1150 µM
O=C(C1CCN(c2nccc(N3CCC(F)(F)C3=O)n2)CC1)N1OCC[C@H]1c1cncc(F)c1 [Example 75] | 98.4 µM
Cc1ccc([C@@H]2CCON2C(=O)C2CCN(c3nccc(-c4ncco4)n3)CC2)cn1 [Example 37] | 34.7 µM

---

compounds and their reported solubility at 16 h
assay: physchem; conditions: 50 mM phosphate buffer, 25 °C, pH 7.4, aqueous buffer, thermodynamic from solid
Parameter: solubility at 16 h (µM)

O=C1CCCN1c1ccnc(N2CC[C@@H](C(=O)N3OCC[C@H]3c3cnccn3)C3(CC3)C2)n1 [Example 100] | 269
Cc1nc([C@@H]2CCON2C(=O)C2CCN(c3cc(-c4ncnn4C)ncn3)CC2)cs1 [Example 40] | 136
Cc1ccc([C@@H]2CCON2C(=O)[C@@H]2CCN(c3ncnc(-c4ccnn4C)n3)CC23CC3)cn1 [Example 69] | 601

---

assay: physchem; conditions: 50 mM phosphate buffer, 25 °C, pH 7.4, aqueous buffer, thermodynamic from solid
Reported solubility at 16 h values for the following compounds.
Parameter: solubility at 16 h

Cc1nccn1-c1cc(N2CCC(C(=O)N3OCC[C@H]3c3cnccn3)CC2)ncn1 | > 1190 µM
Cc1ccc([C@@H]2CCON2C(=O)C2CCN(c3cc(N4CCCC4=O)ncn3)CC2)cn1 | > 1150 µM
Cc1ccc([C@@H]2CCON2C(=O)C2CCN(c3cc(-c4ccnn4C)ncn3)CC23CC3)cn1 (mixture of isomers) | > 1090 µM
O=C1CCCCN1c1ccnc(N2CCC(C(=O)N3OCC[C@H]3c3cnccn3)CC2)n1 | > 1140 µM
Cc1nccn1-c1ccnc(N2CCC(C(=O)N3OCC[C@H]3c3cnccn3)CC2)n1 | > 1190 µM
Cc1cnn(-c2ccnc(N3CCC(C(=O)N4OCC[C@H]4c4ccc(C)nc4)CC3)n2)c1 | 173 µM
Cc1ncc([C@@H]2CCON2C(=O)C2CCN(c3nccc(N4CCOC4=O)n3)CC2)cc1F | 209 µM
Cc1nc([C@@H]2CCON2C(=O)C2CCN(c3nccc(N4CCCC4=O)n3)CC2)co1 | > 1170 µM
Cc1ccc([C@@H]2CCON2C(=O)[C@@H]2CCN(c3cc(-n4ccnc4C)ncn3)CC23CC3)cn1 (single isomer, unassigned) | > 1090 µM
CO[C@@H]1CCCN(c2ccnc(N3CCC(C(=O)N4OCC[C@H]4c4cncc(F)c4)CC3)n2)C1=O | > 1030 µM

---

test: physchem; conditions: 50 mM phosphate buffer, 25 °C, pH 7.4, aqueous buffer, thermodynamic from solid
# solubility at 16 h values compiled below
Parameter: solubility at 16 h (µM)

Cc1ccc([C@@H]2CCON2C(=O)C2CCN(c3ncnc(-c4ccnn4C)n3)CC2)cn1 [Example 8] | 328
Cc1ccc([C@@H]2CCON2C(=O)[C@@H]2CCN(c3nccc(N4CCCC4=O)n3)CC23CC3)cn1 [Example 44] | 380
Cc1ccc([C@@H]2CCON2C(=O)C2CCN(c3ncc(F)c(-c4ccnn4C)n3)CC2)cn1 [Example 19] | 7.1
Cc1nc([C@@H]2CCON2C(=O)C2CCN(c3nccc(N4CCC5(CC5)C4=O)n3)CC2)cs1 [Example 52] | 321
Cc1ncc([C@@H]2CCON2C(=O)C2CCN(c3nccc(-n4ccnc4C)n3)CC2)cc1F [Example 20] | 21.4
O=C(C1CCN(c2nc(-c3cncnc3)ncc2F)CC1)N1OCC[C@H]1c1cnccn1 [Example 25] | 69.2
Cc1ccc([C@@H]2CCON2C(=O)C2CCN(c3ncnc(-c4nccs4)n3)CC2)cn1 [Example 38] | 275
Cc1cnn(-c2nccc(N3CCC(C(=O)N4OCC[C@H]4c4ccc(C)nc4)CC3)n2)c1 [Example 16] | 169
Cc1ncc([C@@H]2CCON2C(=O)C2CCN(c3ncnc(-c4ccnn4C)n3)CC2)cc1F [Example 45] | 904

---

test: physchem; conditions: 50 mM phosphate buffer, 25 °C, pH 7.4, aqueous buffer, thermodynamic from solid
Parameter: solubility at 16 h

O=C1OCCN1c1ccnc(N2CCC(C(=O)N3OCC[C@H]3c3cncc(F)c3)CC2)n1 | > 1130 µM
O=C1OCCN1c1ccnc(N2CCC(C(=O)N3OCC[C@H]3c3cnccn3)CC2)n1 | > 1180 µM
Cc1ccc([C@@H]2CCON2C(=O)C2CCN(c3ncc(F)c(-n4ccnc4C)n3)CC2)cn1 | > 1110 µM
Cc1ccc([C@@H]2CCON2C(=O)C2CCN(c3cc(-n4ccnc4C)ncn3)CC23CC3)cn1 (mixture of isomers) | > 1090 µM

---

assay: physchem; details: 50 mM phosphate buffer, 25 °C, pH 7.4, aqueous buffer, thermodynamic from solid
# solubility at 16 h values compiled below
Parameter: solubility at 16 h

CO[C@H]1CCCN(c2ccnc(N3CCC(C(=O)N4OCC[C@H]4c4cncc(F)c4)CC3)n2)C1=O [Example 97] | > 1030 µM
O=C1CCCN1c1nccc(N2CCC(C(=O)N3OCC[C@H]3c3cncc(F)c3)CC2)n1 [Example 71] | > 1140 µM
O=C1CCCN1c1ccnc(N2CCC(C(=O)N3OCC[C@H]3c3cncc(F)c3)CC2)n1 [Example 46] | > 1140 µM
Cc1nc([C@@H]2CCON2C(=O)C2CCN(c3ncnc(-n4ccnc4C)n3)CC2)cs1 [Example 23] | > 1140 µM
Cc1cncc([C@@H]2CCON2C(=O)C2CCN(c3ncc(F)c(N4CCC5(CC5)C4=O)n3)CC2)c1 [Example 103] | > 1040 µM
CO[C@H]1CCCN(c2ccnc(N3CCC(C(=O)N4OCC[C@H]4c4ccc(C)nc4)CC3)n2)C1=O [Example 94] | > 1040 µM
Cc1ncc([C@@H]2CCON2C(=O)C2CCN(c3nccc(-c4cc(N)nn4C)n3)CC2)cc1F [Example 102] | > 1070 µM
Cc1ncc([C@@H]2CCON2C(=O)C2CCN(c3nccc(N4CCCC4=O)n3)CC2)cc1F [Example 56] | > 1100 µM
CO[C@@H]1CCCN(c2ccnc(N3CCC(C(=O)N4OCC[C@H]4c4ccc(C)nc4)CC3)n2)C1=O [Example 93] | > 1040 µM
O=C1CCCN1c1nc(N2CCC(C(=O)N3OCC[C@H]3c3cnccn3)CC2)ncc1F [Example 6] | > 1130 µM
O=C(C1CCN(c2nccc(-c3ncco3)n2)CC1)N1OCC[C@H]1c1cnccn1 [Example 11] | > 2780 µM

Ref: patent US20260234136A1
